# Cytotoxicity (IC50) DU145 listing for each entry below
test system: DU145; assay: MTT cytotoxicity on various cancer cells (Table 1); type: cell-based, human; conditions: human, 48 h
Where a SMILES comes first, the peptide text is derived from it. [ ]: non-standard residue; d: D form. pGlu = O=C1CC[C@@H](C(=O)O)N1
Supply the numeric figure in µg/mL, leaving out any unit text.

Solved entries:
Req: Complete the entry with Cytotoxicity (IC50) DU145 for CCNC(=O)[C@@H]1CCCN1C(=O)[C@@H](NC(=O)[C@H](Cc1ccccc1)NC(=O)[C@H](C)NC(=O)[C@H](CC(C)C)NC(=O)[C@H](CCCNC(=N)N)NC(=O)[C@H](Cc1ccc(O)cc1)NC(=O)[C@H](CO)NC(=O)[C@H](Cc1c[nH]c2ccccc12)NC(=O)[C@H](Cc1c[nH]cn1)NC(=O)[C@@H]1CCC(=O)N1)[C@@H](C)CC [HS1004] ([pGlu]HWSYRLAFIP-NHEt; C-terminus assumed)
Resp: 17.54

Req: Complete the entry with Cytotoxicity (IC50) DU145 for CCNC(=O)[C@@H]1CCCN1C(=O)[C@@H](NC(=O)[C@H](Cc1ccccc1)NC(=O)[C@H](CCCNC(=N)N)NC(=O)[C@@H]1CCCN1C(=O)[C@H](C)NC(=O)[C@H](Cc1ccc(O)cc1)NC(=O)[C@H](CO)NC(=O)[C@H](Cc1c[nH]c2ccccc12)NC(=O)[C@H](Cc1c[nH]cn1)NC(=O)[C@@H]1CCC(=O)N1)[C@@H](C)CC [HS1003] ([pGlu]HWSYAPRFIP-NHEt; C-terminus assumed)
Resp: 12.37

Req: Complete the entry with Cytotoxicity (IC50) DU145 for CC(C)C[C@H](NC(=O)[C@H](C)NC(=O)[C@@H]1CCCN1C(=O)[C@H](CCCNC(=N)N)NC(=O)[C@H](C)NC(=O)[C@@H](N)CCC(=O)O)C(=O)N[C@@H](CC(C)C)C(=O)N[C@@H](CO)C(=O)N[C@H](C(=O)N[C@@H](CCCNC(=N)N)C(=O)N[C@@H](Cc1ccccc1)C(=O)N[C@@H](CCCNC(=N)N)C(=O)N1CCC[C@H]1C(=O)N[C@@H](CCCCN)C(=O)O)[C@@H](C)O [HS1005] (H-EARPALLSTRFRPK-OH; N-terminus and C-terminus assumed)
Resp: 16.17

Req: Complete the entry with Cytotoxicity (IC50) DU145 for CC(C)C[C@H](NC(=O)[C@H](C)NC(=O)[C@@H]1CCCN1C(=O)[C@H](CCCNC(=N)N)NC(=O)[C@H](C)NC(=O)[C@@H](N)CCC(=O)O)C(=O)N[C@@H](CC(C)C)C(=O)N[C@@H](CO)C(=O)N[C@H](C(=O)N[C@@H](CCCNC(=N)N)C(=O)N[C@@H](CC(C)C)C(=O)N[C@@H](CCCNC(=N)N)C(=O)N1CCC[C@H]1C(=O)O)[C@@H](C)O [HS1001] (H-EARPALLSTRLRP-OH; N-terminus and C-terminus assumed)
Resp: 7.82

As a next step, examine the molecule that follows.
Req: Complete the entry with Cytotoxicity (IC50) DU145 for CC(C)C[C@H](NC(=O)CNC(=O)[C@@H](NC(=O)[C@H](CO)NC(=O)[C@H](CC(C)C)NC(=O)[C@H](CC(C)C)NC(=O)[C@H](C)NC(=O)[C@@H]1CCCN1C(=O)[C@H](CCCNC(=N)N)NC(=O)[C@H](C)NC(=O)[C@@H](N)CCC(=O)O)[C@@H](C)O)C(=O)N[C@@H](CCCNC(=N)N)C(=O)N1CCC[C@H]1C(=O)N[C@@H](CCCCN)C(=O)O [HS1006] (H-EARPALLSTGLRPK-OH; N-terminus and C-terminus assumed)
Resp: 19.46
